Could you please report measured IC50 for the items listed next?
- Test system: G-401 tumor spheroids, viability % test/control
- PROCEDURE_DETAILS: Anticancer human tumor G-401 cell line growth inhibition;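 also: spheroids exposed to compound for 7 days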
- CONDITION_SUMMARY: curve of first compound; second compound 10 µM; spheroids with HUVEC and MSC
Answer in µM, number only, no unit symbol.

Give IC50 for Cc1sc2c(c1C)C(c1ccc(Cl)cc1)=NC(CC(=O)Nc1ccc(O)cc1)c1nnc(C)n1-2 (stereo not drawn) + Cn1nnc2c(C(N)=O)ncn2c1=O tested on G-401 tumor spheroids, viability % test/control.
0.163

Give IC50 for CC1COCCN1c1cc(-c2ccnn2C)c2ccnc(-c3ccn[nH]3)c2n1 (stereo not drawn) + Cn1nnc2c(C(N)=O)ncn2c1=O tested on G-401 tumor spheroids, viability % test/control.
0.0797

* * *

- System: G-401 tumor spheroids, viability % test/control
- PROCEDURE_DETAILS: Anticancer human tumor G-401 cell line growth inhibition;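 also: spheroids exposed to compound for 7 days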;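 as to viability, T/C: 100% = DMSO vehicle-treated spheroids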
- CONDITION_SUMMARY: second compound 0.00949 µM; first compound 0.1 µM; stronger effect = lower value; spheroids with HUVEC and MSC
Binarize viability, T/C at 40%; below is Y, at or above is N.

Below 40% on viability, T/C? Entry COc1ccc([C@@H](O)c2cc(-c3ncnc4cc(N5CCOCC5)ccc34)c(F)cc2Cl)nn1 + CC[C@@]1(O)C(=O)OCc2c1cc1n(c2=O)Cc2cc3c(CN(C)C)c(O)ccc3nc2-1
N

Below 40% on viability, T/C? Entry CC1COCCN1c1cc(-c2ccnn2C)c2ccnc(-c3ccn[nH]3)c2n1 (stereo unspecified) + CC[C@@]1(O)C(=O)OCc2c1cc1n(c2=O)Cc2cc3c(CN(C)C)c(O)ccc3nc2-1
Y

Below 40% on viability, T/C? Entry CC(C)n1c(=O)n(C)c2cnc3cc(F)c(-c4ccc(OCCCN5CCCCC5)nc4)cc3c21 + CC[C@@]1(O)C(=O)OCc2c1cc1n(c2=O)Cc2cc3c(CN(C)C)c(O)ccc3nc2-1
Y

Below 40% on viability, T/C? Entry COc1cc(C)[nH]c(=O)c1CN1CCc2c(Cl)cc(C(OC)C3COC3)c(Cl)c2C1=O (stereo unspecified) + CC[C@@]1(O)C(=O)OCc2c1cc1n(c2=O)Cc2cc3c(CN(C)C)c(O)ccc3nc2-1
N

Below 40% on viability, T/C? Entry [2H]c1nc(C)nc([2H])c1-c1cc(NC[C@@H](C)c2cccc3c(C(=O)NC)ccnc23)ncn1 + CC[C@@]1(O)C(=O)OCc2c1cc1n(c2=O)Cc2cc3c(CN(C)C)c(O)ccc3nc2-1
N

* * *

- System: G-401 tumor spheroids, viability % test/control
- PROCEDURE_DETAILS: Anticancer human tumor G-401 cell line growth inhibition;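 also: spheroids exposed to compound for 7 days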
- CONDITION_SUMMARY: curve of first compound; second compound 0.00949 µM; spheroids with HUVEC and MSC
pIC50: −log10 of the molar value.
MEASURED_QUANTITY: pIC50

Give pIC50 for CC(C)n1c(=O)n(C)c2cnc3cc(F)c(-c4ccc(OCCCN5CCCCC5)nc4)cc3c21 + CC[C@@]1(O)C(=O)OCc2c1cc1n(c2=O)Cc2cc3c(CN(C)C)c(O)ccc3nc2-1 tested on G-401 tumor spheroids, viability % test/control.
> 7.50

Give pIC50 for CNCc1ccc(-c2cc(-c3nc(-c4ccc(S(=O)(=O)C(C)C)cc4)cnc3N)on2)cc1 + CC[C@@]1(O)C(=O)OCc2c1cc1n(c2=O)Cc2cc3c(CN(C)C)c(O)ccc3nc2-1 tested on G-401 tumor spheroids, viability % test/control.
> 8.02

Give pIC50 for COc1cc(C)[nH]c(=O)c1CN1CCc2c(Cl)cc(C(OC)C3COC3)c(Cl)c2C1=O (stereo not given) + CC[C@@]1(O)C(=O)OCc2c1cc1n(c2=O)Cc2cc3c(CN(C)C)c(O)ccc3nc2-1 tested on G-401 tumor spheroids, viability % test/control.
> 7.50

Give pIC50 for Cc1cc(C)c(CNC(=O)c2cc(-c3ccc(CN4CCOCC4)cc3)cc3c2cnn3C2CCCC2)c(=O)[nH]1 + CC[C@@]1(O)C(=O)OCc2c1cc1n(c2=O)Cc2cc3c(CN(C)C)c(O)ccc3nc2-1 tested on G-401 tumor spheroids, viability % test/control.
> 7.50

Give pIC50 for COc1ccc([C@@H](O)c2cc(-c3ncnc4cc(N5CCOCC5)ccc34)c(F)cc2Cl)nn1 + CC[C@@]1(O)C(=O)OCc2c1cc1n(c2=O)Cc2cc3c(CN(C)C)c(O)ccc3nc2-1 tested on G-401 tumor spheroids, viability % test/control.
> 7.50

* * *

- Test system: G-401 tumor spheroids, viability % test/control
- PROCEDURE_DETAILS: Anticancer human tumor G-401 cell line growth inhibition;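 also: spheroids exposed to compound for 7 days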;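 as to viability, T/C: 100% = DMSO vehicle-treated spheroids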
- CONDITION_SUMMARY: second compound 10 µM; first compound 0.1 µM; stronger effect = lower value; spheroids with HUVEC and MSC
Could you please report measured viability, T/C for the items listed next?
Answer in %, number only, no unit symbol.

Look up and state reported viability, T/C for [2H]c1nc(C)nc([2H])c1-c1cc(NC[C@@H](C)c2cccc3c(C(=O)NC)ccnc23)ncn1 + Cn1nnc2c(C(N)=O)ncn2c1=O
99.6

Look up and state reported viability, T/C for COc1ccc([C@@H](O)c2cc(-c3ncnc4cc(N5CCOCC5)ccc34)c(F)cc2Cl)nn1 + Cn1nnc2c(C(N)=O)ncn2c1=O
96.1

Look up and state reported viability, T/C for Cc1cc(C)c(CNC(=O)c2cc(-c3ccc(CN4CCOCC4)cc3)cc3c2cnn3C2CCCC2)c(=O)[nH]1 + Cn1nnc2c(C(N)=O)ncn2c1=O
99

Look up and state reported viability, T/C for CC1COCCN1c1cc(-c2ccnn2C)c2ccnc(-c3ccn[nH]3)c2n1 (stereo unspecified) + Cn1nnc2c(C(N)=O)ncn2c1=O
43.6

Look up and state reported viability, T/C for COc1cc(C)[nH]c(=O)c1CN1CCc2c(Cl)cc(C(OC)C3COC3)c(Cl)c2C1=O (stereo unspecified) + Cn1nnc2c(C(N)=O)ncn2c1=O
59.9

Look up and state reported viability, T/C for CC(C)n1c(=O)n(C)c2cnc3cc(F)c(-c4ccc(OCCCN5CCCCC5)nc4)cc3c21 + Cn1nnc2c(C(N)=O)ncn2c1=O
98.9

* * *

- Test system: G-401 tumor spheroids, viability % test/control
- PROCEDURE_DETAILS: Anticancer human tumor G-401 cell line growth inhibition;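 also: spheroids exposed to compound for 7 days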;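 as to viability, T/C: 100% = DMSO vehicle-treated spheroids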
- CONDITION_SUMMARY: second compound 0.000949 µM; first compound 0.0949 µM; stronger effect = lower value; spheroids with HUVEC and MSC
Could you please report measured viability, T/C for the items listed next?
Answer in %, number only, no unit symbol.

Look up and state reported viability, T/C for Cc1sc2c(c1C)C(c1ccc(Cl)cc1)=NC(CC(=O)Nc1ccc(O)cc1)c1nnc(C)n1-2 (centres undefined) + COc1cc2c(cc1O)CCNC21CSC2c3c(OC(C)=O)c(C)c4c(c3C(COC1=O)N1C(O)C3Cc5cc(C)c(OC)c(O)c5C(C21)N3C)OCO4
19.1

Look up and state reported viability, T/C for CNCc1ccc(-c2cc(-c3nc(-c4ccc(S(=O)(=O)C(C)C)cc4)cnc3N)on2)cc1 + COc1cc2c(cc1O)CCNC21CSC2c3c(OC(C)=O)c(C)c4c(c3C(COC1=O)N1C(O)C3Cc5cc(C)c(OC)c(O)c5C(C21)N3C)OCO4
12.2

Look up and state reported viability, T/C for Cn1ncnc1[C@H]1c2n[nH]c(=O)c3cc(F)cc(c23)N[C@@H]1c1ccc(F)cc1 + COc1cc2c(cc1O)CCNC21CSC2c3c(OC(C)=O)c(C)c4c(c3C(COC1=O)N1C(O)C3Cc5cc(C)c(OC)c(O)c5C(C21)N3C)OCO4
5.35

Look up and state reported viability, T/C for O=C(c1cc(Cc2n[nH]c(=O)c3ccccc23)ccc1F)N1CCN(C(=O)C2CC2)CC1 + COc1cc2c(cc1O)CCNC21CSC2c3c(OC(C)=O)c(C)c4c(c3C(COC1=O)N1C(O)C3Cc5cc(C)c(OC)c(O)c5C(C21)N3C)OCO4
10.1

* * *

Could you please report measured viability, T/C for the items listed next?
- Test system: G-401 tumor spheroids, viability % test/control
- PROCEDURE_DETAILS: Anticancer human tumor G-401 cell line growth inhibition;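 also: spheroids exposed to compound for 7 days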;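 as to viability, T/C: 100% = DMSO vehicle-treated spheroids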
- CONDITION_SUMMARY: second compound 30 pM; first compound 0.0316 µM; stronger effect = lower value; spheroids with HUVEC and MSC
Answer in %, number only, no unit symbol.

Look up and state reported viability, T/C for COc1cc(C)[nH]c(=O)c1CN1CCc2c(Cl)cc(C(OC)C3COC3)c(Cl)c2C1=O (stereo unspecified) + COc1cc2c(cc1O)CCNC21CSC2c3c(OC(C)=O)c(C)c4c(c3C(COC1=O)N1C(O)C3Cc5cc(C)c(OC)c(O)c5C(C21)N3C)OCO4
83.1

Look up and state reported viability, T/C for COc1ccc([C@@H](O)c2cc(-c3ncnc4cc(N5CCOCC5)ccc34)c(F)cc2Cl)nn1 + COc1cc2c(cc1O)CCNC21CSC2c3c(OC(C)=O)c(C)c4c(c3C(COC1=O)N1C(O)C3Cc5cc(C)c(OC)c(O)c5C(C21)N3C)OCO4
93.1

Look up and state reported viability, T/C for CC(C)n1c(=O)n(C)c2cnc3cc(F)c(-c4ccc(OCCCN5CCCCC5)nc4)cc3c21 + COc1cc2c(cc1O)CCNC21CSC2c3c(OC(C)=O)c(C)c4c(c3C(COC1=O)N1C(O)C3Cc5cc(C)c(OC)c(O)c5C(C21)N3C)OCO4
43.6

Look up and state reported viability, T/C for CC1COCCN1c1cc(-c2ccnn2C)c2ccnc(-c3ccn[nH]3)c2n1 (stereo unspecified) + COc1cc2c(cc1O)CCNC21CSC2c3c(OC(C)=O)c(C)c4c(c3C(COC1=O)N1C(O)C3Cc5cc(C)c(OC)c(O)c5C(C21)N3C)OCO4
57.3

Look up and state reported viability, T/C for [2H]c1nc(C)nc([2H])c1-c1cc(NC[C@@H](C)c2cccc3c(C(=O)NC)ccnc23)ncn1 + COc1cc2c(cc1O)CCNC21CSC2c3c(OC(C)=O)c(C)c4c(c3C(COC1=O)N1C(O)C3Cc5cc(C)c(OC)c(O)c5C(C21)N3C)OCO4
103

Look up and state reported viability, T/C for Cc1cc(C)c(CNC(=O)c2cc(-c3ccc(CN4CCOCC4)cc3)cc3c2cnn3C2CCCC2)c(=O)[nH]1 + COc1cc2c(cc1O)CCNC21CSC2c3c(OC(C)=O)c(C)c4c(c3C(COC1=O)N1C(O)C3Cc5cc(C)c(OC)c(O)c5C(C21)N3C)OCO4
107
